assay: KB-3-1 Cancer Cell Toxicity qHTS against the NCATS CANVASS Library (AID 1347366); details: KB-3-1 viability, CellTiter-Glo luminescence, 72 h; series mostly up to 46.1 µM; further: nearly all actives have a fitted effect of over 75% in size
Records with an inconclusive call do not appear. Activity calls are given as the source filed them. The call rests on the fitted dose curve; in most records, active means well fitted cell-killing curve with a large enough effect; inconclusive means small, poorly fitted or top-dose-only effect; inactive means flat fitted curve, though single readings scatter.
Write down the outcome that applies. Available outcomes: active, inactive

O=C1c2c(O)cc(O)cc2OC(c2ccc(O)cc2)C1O (centres undefined) :: inactive
C/C=C(/C)c1c(Cl)c(O)c(C)c2c1Oc1c(Cl)c(O)c(Cl)c(C)c1C(=O)O2 :: inactive
Oc1ccc(C2Oc3cc(O)c4c(c3[C@@H]2c2cc(O)cc(O)c2)[C@H]2C(c3ccc(O)cc3)c3c(O)cc5c(c3[C@H]2C4c2ccc(O)cc2)[C@H](c2cc(O)cc(O)c2)C(c2ccc(O)cc2)O5)cc1 (some centres undefined) :: active
CC(=O)c1c(C)cc2c(c1O)C(=O)c1c(O)cc(O)cc1C2=O :: inactive
O=C1CC(c2ccc(O)cc2)Oc2ccccc21 (centres undefined) :: inactive

Task item: Fill in: this test's call for `CC[C@@H](c1cc(OC)c(OC)cc1OC)[C@H](C)[C@@H](/C(C)=C/c1cc(OC)c(OC)cc1OC)c1cc(OC)c(OC)cc1OC` is ___
Reply: inactive

Task item: Any idea what this test logged for `C/C(=C\[C@H](C)C(=O)/C=C/CC1CC(=O)NC(=O)C1)[C@@H]1OC(=O)/C=C/CC/C=C/C[C@@H](O)[C@@H]1C` ?
Reply: active

Task item: Recorded test call requested for `CC(C)=CCC/C(C)=C/Cc1cc([C@@H]2CC(=O)c3c(cc(O)c(CC=C(C)C)c3O)O2)ccc1O`
Reply: inactive

Task item: For `CCC(=O)CCCCC[C@@H]1NC(=O)[C@H]2CCCCN2C(=O)[C@H](C(C)C)NC(=O)[C@H](Cc2cn(OC)c3ccccc23)NC1=O` , which call appears in the assay record?
Reply: active
